Conditions: 328.15 K; 101.33 kPa; Liquid; Capillary tube (Ostwald / Ubbelohde) method
The following molecules are shown together with reported log10 viscosity values.
Hey, these are logged values: log10 of viscosity, mPa·s being the unit before logging.

// solved cases for log10 viscosity follow
molecule: CC#N
log10 viscosity: -0.57
--
molecule: C[S+](C)[O-] [dimethyl sulfoxide]
log10 viscosity: 0.08
--
molecule: COS(=O)(=O)[O-].Cn1cc[n+](C)c1 [1,3-dimethylimidazolium methylsulfate]
log10 viscosity: 1.36
--
molecule: CO
log10 viscosity: -0.32
--
molecule: CN(C)C=O [dimethylformamide]
log10 viscosity: -0.20

With those in mind, consider the next molecule.
molecule `O` , log10 viscosity observed: -0.30

###

Assay: refractive index (Na D-line) (dimensionless)
Conditions: 318.15 K; 101.33 kPa; Liquid; Standard Abbe refractometry
measured-quantity: refractive index
Lab note: record just the number, no unit beside it.

compound: COS(=O)(=O)[O-].Cn1cc[n+](C)c1 [1,3-dimethylimidazolium methylsulfate]
refractive index: 1.475

compound: O
refractive index: 1.3298

compound: C[S+](C)[O-] [dimethyl sulfoxide]
refractive index: 1.4668

compound: CO
refractive index: 1.3185

compound: CN(C)C=O [dimethylformamide]
refractive index: 1.418

With those in mind, consider the next compound.
compound `CC#N` , refractive index observed: 1.3327

###

The following compounds are shown together with reported mass density values.
Details: 318.15 K; 101.33 kPa; Liquid; Vibrating tube method
± gives the expanded uncertainty stated by the source.

// solved cases for mass density follow
compound: COS(=O)(=O)[O-].Cn1cc[n+](C)c1 [1,3-dimethylimidazolium methylsulfate]
measured-quantity: mass density
recorded-result: 1324.8 ± 0.51 kg/m3
--
compound: CC#N [acetonitrile]
measured-quantity: mass density
recorded-result: 754.67 ± 0.14 kg/m3
--
compound: CO [methanol]
measured-quantity: mass density
recorded-result: 767.48 ± 0.13 kg/m3
--
compound: CN(C)C=O [dimethylformamide]
measured-quantity: mass density
recorded-result: 924.75 ± 0.11 kg/m3

With those in mind, consider the next compound.
compound C[S+](C)[O-] [dimethyl sulfoxide] , mass density observed: 1075.24 ± 0.12 kg/m3

###

Conditions: 328.15 K; 101.33 kPa; Liquid; Vibrating tube method
Mark criterion met for mass density under 1000 kg/m3, criterion not met if at or over.

Worked examples follow.
compound: CC#N
label-class: criterion met

compound: C[S+](C)[O-] [dimethyl sulfoxide]
label-class: criterion not met

query: Threshold test, mass density < 1000 kg/m3: CN(C)C=O [dimethylformamide]
result: criterion met

query: Threshold test, mass density < 1000 kg/m3: `CO`
result: criterion met

query: Threshold test, mass density < 1000 kg/m3: COS(=O)(=O)[O-].Cn1cc[n+](C)c1 [1,3-dimethylimidazolium methylsulfate]
result: criterion not met

###

Conditions: 298.15 K; 101.33 kPa; Liquid; Vibrating tube method
measured-quantity: mass density (kg/m3)
Provide only the numeric value, understood in kg/m3.

molecule: CO [methanol]
mass density [kg/m3]: 786.53

molecule: CN(C)C=O [dimethylformamide]
mass density [kg/m3]: 943.8

molecule: C[S+](C)[O-] [dimethyl sulfoxide]
mass density [kg/m3]: 1095.27

molecule CC#N [acetonitrile] , mass density observed: 776.59

molecule COS(=O)(=O)[O-].Cn1cc[n+](C)c1 [1,3-dimethylimidazolium methylsulfate] , mass density observed: 1341.52

The reported measurements were obtained from the NIST ThermoML archive (doi:10.1016/j.fluid.2010.01.002).
